# experimentalDetails: Sulcardine salts PK analysis, oral capsule administration
# Assay type: in vivo
# statedConditions: dog, plasma; single oral capsule administration, fasted male Beagle dogs, median; read-out: Tmax (median peak sulcardine plasma concentration)
Counter-ions that a name gives are not always drawn.
testReadout: Tmax (h)
One number for each entry, in h.

Query :: # query: Tmax of entry COc1ccc(S(=O)(=O)NCc2cc(CN3CCCC3)c(O)c(CN3CCCC3)c2)cc1 [sulfate salt, Sulcardine sulfate, reference compound]
Result :: 2
